# Test Target: Neutrophil elastase (Homo sapiens, UniProt P08246)
# Sequence (P08246 whole entry): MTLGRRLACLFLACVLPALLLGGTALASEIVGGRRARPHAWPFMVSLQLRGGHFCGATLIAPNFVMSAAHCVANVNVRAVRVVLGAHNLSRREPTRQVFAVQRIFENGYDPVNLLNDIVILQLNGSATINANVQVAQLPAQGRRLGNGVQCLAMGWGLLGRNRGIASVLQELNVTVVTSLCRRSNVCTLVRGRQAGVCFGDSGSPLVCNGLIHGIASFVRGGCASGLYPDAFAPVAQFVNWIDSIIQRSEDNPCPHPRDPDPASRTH
# Procedure Summary: ChEBML_64294
Each entry below carries its recorded pKi.
Notebook: values listed as pKi are -log10 of the concentration (mol/L).

Consider the reported pKi for these compounds:
CC[C@@H](C)/C(NS(=O)(=O)c1ccc(C)cc1)=C(\O)[N]1[C@@H](CCCCNC(=O)C23CC4CC(CC(C4)C2)C3)C(=O)[N]2[C@H](C(=O)N[C@H](C(N)=O)C(C)C)C[S][Re]21=[O] (stereo partly drawn)    3.88
CC[C@@H](C)/C(NS(=O)(=O)c1ccc(C)cc1)=C(\O)[N]1[C@@H](CCCCNC(=O)C23CC4CC(CC(C4)C2)C3)C(=O)[N]2[C@H](C(=O)N[C@H](C(=O)O)C(C)C)C[S][Re]21=[O] (stereo partly drawn)    4.44

Need pKi, item CC[C@@H](C)/C(NCc1ccccc1)=C(\O)[N]1[C@@H](CCCCNC(=O)C23CC4CC(CC(C4)C2)C3)C(=O)[N]2[C@H](C(=O)N[C@H](C(N)=O)C(C)C)C[S][Re]21=[O] (stereo partly drawn) 3.71
